System: P. aeruginosa GN_043, PmxR
condition set: P. aeruginosa GN_043, PmxR
Positions of bridges follow the written chain, without caps; N, C: chain ends. Non-standard residues stand in square brackets, D forms with d. Residues, ends and D or L forms follow the SMILES beside them. *: point of attachment. Decanoyl(3R-OH) = CCCCCCC[C@@H](O)CC(=O)*; Nle = CCCC[C@H](N)C(=O)O; dDap = NC[C@@H](N)C(=O)O; Dab = NCC[C@H](N)C(=O)O
What MIC P. aeruginosa GN_043, PmxR was measured for each of the following?
Numbers only, in µg/mL.

>  <compound>
CCCCCCC[C@@H](O)CC(=O)N[C@H](CN)C(=O)N[C@H]1CCNC(=O)[C@H](CC(C)C)NC(=O)[C@H](CCN)NC(=O)[C@H](CCN)NC(=O)[C@H](CCCC)NC(=O)[C@@H](Cc2ccccc2)NC(=O)[C@H](CCN)NC1=O [compound 9294] ({Decanoyl(3R-OH)}-[dDap][Dab][Dab][dF][Nle][Dab][Dab]L; lactam 2-C)

>  <result number>
1

$$$$

For the compound shown here, CCCCCCC[C@@H](O)CC(=O)N[C@H](Cc1c[nH]c2ccccc12)C(=O)N[C@H]1CCNC(=O)[C@H](CC(C)C)NC(=O)[C@H](CCN)NC(=O)[C@H](CCN)NC(=O)[C@H](Cc2ccccc2)NC(=O)[C@@H](CC(C)C)NC(=O)[C@H](CCN)NC1=O [compound 6426] ({Decanoyl(3R-OH)}-[dW][Dab][Dab][dL]F[Dab][Dab]L; lactam 2-C) , give the reported MIC P. aeruginosa GN_043, PmxR.
8
